Tested on: nuclear import of SV40-NLS-BSA (biotinylated BSA-NLS)
Assay: Quantitative ELISA-based nuclear import assay, inhibition of NLS-BSA (SV40-NLS-BSA) uptake in permeabilized Colo-205 cells
Format: cell-based
Details: SV40-NLS-BSA substrate; peptide:substrate molar ratios between 500:1 and 0.005:1
quantity kind: IC50 (µM)
Report the value in µM with no unit label.

^85VSIEWRKK^92 (UniProt P69723 85-92, looked up, fragment) [Vif 85-92]    253
C^48GRKKRRQRRRAHQN^61 (N-terminal cysteine; UniProt P04608 48-61, looked up, fragment) [Tat NLS]    147

Turning to the following substance.
What value of IC50 on nuclear import of SV40-NLS-BSA (biotinylated BSA-NLS) does PKKKRKVC [SV40 large T-antigen NLS] have?
0.02

====

Test system: trypsin
Experiment: Stability to proteolytic cleavage by trypsin
Format: in vitro ADME
Settings: trypsin solution; room temperature, TEA buffer pH 7.8, HPLC peak area; read-out: half life (t½) of digestion by trypsin (converted)
Numbered stars: 1 amine (or outer) side, 2 acyl side, 3 side chain; on linkers, the order of the positions; unused ones are H or OH. Bridge positions count the residues as written; N and C are the ends. Square brackets hold non-standard residues; d marks the D form. Peptide text beside a SMILES is read from it. N(6-aminohexyl)Gly = O=C(CN(CCCCCCN[*:3])[*:1])[*:2]; X1 = CC(C)[C@H](NC(=O)CCCCC(=O)[*:1])C(=O)[*:2]
Parameter: half-life. Scope: all listed entries.
# output: numeric value plus its unit

CC(C)C[C@H](NC(=O)[C@H](CCCCN)NC(=O)CN1CCCCCCNC(=O)[C@H](C(C)C)NC(=O)CCCCC(=O)N[C@@H](CCCCN)C(=O)N[C@@H](CCCCN)C(=O)N[C@@H](CCCCN)C1=O)C(N)=O [BCvir] (KKK[N(6-aminohexyl)Gly]KL-NH2; linker N-4 via X1)    7 h

Next item in the queue.
For NCCCC[C@H](NC(=O)CN1CCCCCCNC(=O)CNC(=O)CCCCC(=O)N[C@@H](CCCCN)C(=O)N[C@@H](CCCCN)C(=O)N[C@@H](CCCCN)C1=O)C(N)=O [peptide 19.4] , what is its reported half-life?
9 h
